Where do these numbers come from? They come from the RNAGym collection of RNA variant scans (doi:10.1038/nmeth.2970).

B1: NELF-E aptamer (parent)
chain: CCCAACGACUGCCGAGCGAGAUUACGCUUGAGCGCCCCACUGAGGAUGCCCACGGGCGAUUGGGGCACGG

# Variants of: B1
# ASSAY_PROCEDURE: HiTS-RAP
# SETTINGS: with NELF-E (Drosophila)
Reported values of Kd for individual entries
Just the number please, in nM, no unit attached.

{"VARIANT_KEY": "A4U G16U", "Kd, nM": 6.93}
{"VARIANT_KEY": "C17G G55A", "Kd, nM": 7.03}
{"VARIANT_KEY": "C13G U28G", "Kd, nM": 6.99}
{"VARIANT_KEY": "G7U C13A", "Kd, nM": 6.82}

Lookup: Reported Kd, variant G11U G14U : ____
Found: 6.82

Lookup: Now try A4G G64C .
Found: 7.19

Lookup: Now try U22G U60G .
Found: 7.18

Lookup: Now try G14A C51U .
Found: 7.06

Lookup: Now try C13G G56A .
Found: 6.97

Lookup: Now try A5U U28G .
Found: 7.17

Lookup: Now try A24G C36U .
Found: 6.95
